The values you see were collected from ChEMBL document CHEMBL2062460.

Each record here notes measured MIC.
System: Staphylococcus aureus
Experiment: Antibacterial activity against methicillin-resistant Staphylococcus aureus clinical isolate 275/08 after 18 hrs by twofold serial agar dilution technique
Format: functional
Details: clinical isolate 275/08, 18 h
Write down the numeric answer in µg/mL and omit the unit.

Sample records with MIC:
Fc1ccc(NC(=S)Nc2nc[nH]n2)cc1; 100
S=C(Nc1ccc(Br)cc1)Nc1nc[nH]n1; 100
S=C(Nc1nc[nH]n1)Nc1ccccc1Br; 100
S=C(Nc1ccc(I)cc1)Nc1nc[nH]n1; 50
Fc1cccc(NC(=S)Nc2nc[nH]n2)c1; 25

Returns the measured MIC for the input molecule. Input: S=C(Nc1ccccc1)Nc1nc[nH]n1
100

What would you report for S=C(Nc1ccc(Cl)cc1)Nc1nc[nH]n1 ?
25
